Data origin, for the record: the supplement of paper PMC12764529

experiment_summary: folding stability dG unfold from trypsin proteolysis; higher = more stable
Returns one of label 1 or label 0; label 1 when folding stability dG unfold is >= 2 kcal/mol.

sequence_content: SKYRILIHTPNPGMPPEEIIDELEEPGFKDVEVVDSPSELKELPPNYDIVIMFHNGQFQISIFPPEELDKSA [r9_750_TrROS]
category: label 0
--
sequence_content: SAGGSAGGGMSLEAPIGEIEKPEGTDTVVITVYENGKWHTIPLPNFKNIKIEKDPNSDVVTILLSAGGSAGG [r6_806_JUSTAS]
category: label 0
--
sequence_content: SAGGMLGFRAETDLFVEPIPPGAEVEPLRIGDRLLLIVRHPDGSYTINLFTPVRPLPVPPAFSTANAASAGG [r13_804_TrMRF]
category: label 0
--
sequence_content: SAGGSAGGSEWTIESIRPRPDGSLIARVRPEGVNVSVEVEFDTLEELLAFAKLLEELGGKVTGSAGGSAGGS [r20_177_TrMRF]
category: label 0
--
sequence_content: SMKIKITAKTEEEREKAKKLLEEIAKELNIEIKIEKIEVIPKPKPEKVELSEEEKKKLKELEEEGLIEEESA [r9_472_TrROS_Hall]
category: label 0
--
sequence_content: SAGGIIIYPKDPDGKQRPIPPEVIRRIVDTIARRYGFEIKIDIEIEPTNDYWVITIPIEIEGLPPEQLSAGG [r13_790_TrROS]
category: label 0
--
sequence_content: SAGGSAGGSAGEFEPVPVLTLPGLDDREVRVVLFKDPPLVLLEVEGAPYVLPAEELLRLASAGGSAGGSAGG [r11_370_TrMRF]
category: label 0
--
sequence_content: SAGGSAGGSAMILVPKEKLEEAAKKLNLNIVEVKPVPPGIEVAEVKVEGSEEQKKAFLEALLSAGGSAGGSA [r18_175_JUSTAS]
category: label 0
--
sequence_content: SATKTITIELPVDVPVEVLKEFFEALGFTEMEFYETEDPRTLVVRFTVPGDPVTVIVIVRPLPVPPDEPLSA [r9_1090_TrMRF]
category: label 1
--
sequence_content: SAGGSAMKLTFTDSKGRTIEITVEKKYLPNGEPYLIITIKYPDTDEEIVITMPTSNIDEILEKLLNSAGGSA [r15_92_JUSTAS]
category: label 1
--
sequence_content: SAGGSAGLTLTFGDKEITLTPNPDTDTFTGTYPDGKPFTFKLTDDELYITYPDGTKEKIPLKDIKNSAGGSA [r15_448_TrMRF]
category: label 0
--
sequence_content: SAGGSWRVSVQFPDGKKIKIPEEPIQKIIQEYGIPPDPGDPERMVERIANRIADKYGYPVKNIEIDSAGGSA [r2_83_TrROS]
category: label 0
--
sequence_content: SAGGKVKVVEIRYFPGTNTVEILVEDPGPYLATIRIPAAPDAPIEIDEDANFRVPDAPVVLGEVRPPSAGGS [r16_515_TrMRF]
category: label 0
--
sequence_content: SAEPITITWPNGMQIPLYKDDDGEIEIKIQMYDPKDGKPVGEQEQRIDPDDNTIEFRFPNGWPFSITIPDSA [r9_56_TrROS]
category: label 0
--
sequence_content: SAGGSAPGEPIFIRWKIEHPNGNPWTIPFPIKTEEQALEQAIRFAESIAKKLGNPNVKIKIDEIIPSAGGSA [r15_698_TrROS]
category: label 0
--
sequence_content: SAGPIKELLEFLKANPDAVVEFEFTLPNGAKVKIKAKKFPDAVVLEVTTIDPNNKKPITGTITIPLPESAGG [r19_143_TrMRF]
category: label 1
--
sequence_content: SAGGSAGGSAPWRIRIRDPNGKKVEIPWEEVADKFGIPPEEMTLDDILEAFANNIDRIEIVDSAGGSAGGSA [r18_403_TrROS]
category: label 0
--
sequence_content: SKTVEITLTNEDGSTVTITFNEETGKIVIKVPPNVSVEQIKALLRKLLPPGAEVTITRTPNGYYEIEVKPSA [r9_933_TrROS_Hall]
category: label 1
--
sequence_content: SAVSTAQLPDDTTLTTITLPGDPSVTLTITTRKLPDGTPYLDATITLPDGTPVTVTFPAGTEAAVIAALASA [r9_310_JUSTAS]
category: label 1
--
sequence_content: VEFEEIETTFTLAAPGGSLVDVDLKTTKKDPKNGKVYIEGTLTTVDPGGVPRTLPTKRVVSPEELKQLVSES [r1_371_JUSTAS]
category: label 0
--
sequence_content: SAGGSAGMPSVTPVTVQMKGSREEAEAVAEELIEELRAKDPSVKVEAVEFSELPDGTYRVTITVTNSAGGSA [r15_718_JUSTAS]
category: label 1
--
sequence_content: SAGGSAGGSAGGPEVTLRLRLEVEVRVVVLKDGKLEEKTFRFELEVEVRFEPGMSLEELSAGGSAGGSAGGS [r10_633_TrROS_Hall]
category: label 1
--
sequence_content: SAGGIKEFADTLQDHGGTVTVEPVNNGSLKVSIQHRDPEDGRMYRMEIEIPPENNKLEIDDWEPYPNSAGGS [r16_613_TrROS]
category: label 0
--
sequence_content: SAGGSKERTYRVLIRNPDGELEEIEVSEEELEALLSLPPSATVRIVTEDGEEKTVTINVEKVELKESAGGSA [r2_222_TrROS_Hall]
category: label 0
--
sequence_content: SASFRLEFPGVRIEVEVEEVEVFPRPDGRPYRLYRAKIRFLDVPEELQALDFPFSLDDEIEVLFLVSLDSAG [r14_942_TrMRF]
category: label 1
--
sequence_content: SAGGMKIVSIEYDKENKKITIKVEAPPGVSAEELAKKIKELAKELFGKEIEIEVKVEKVEFFEPEEESAGGS [r8_314_TrROS_Hall]
category: label 1
--
sequence_content: SAGGMYLVKIKVKIDSPTSEKERDLYILAEPDTDVEEIVKKIPGAKNIEIEVEIIPPSENPEIASNPLSAGG [r19_339_JUSTAS]
category: label 0
